Quick reference: self-aminoacylation of the listed items.
system: biotinyl-Trp-oxazolone; test: self-aminoacylation, catalytic enhancement (BWO) (fold over background); higher = more active; k-Seq, kA / k0A0; sequences stand for … in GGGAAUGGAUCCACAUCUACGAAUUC…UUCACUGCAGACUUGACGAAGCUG
Fewer inactive variants are shown than the library holds.
Give the figure only, with no unit attached.

Some sequences with recorded self-aminoacylation:
GCACACUUCAAGCAAUCAGUC [Fam1B.1 aminoacylation ribozyme variant]; 4.94
AAGUUUGCAUAUAGUCGCAAG [Fam3.1 aminoacylation ribozyme variant]; 0.826
GUGCACCUAGGUCAUCGGGUG [Fam2.2 aminoacylation ribozyme variant]; 6.04
CCGCACUACAAGCAAUCGGUC [Fam1B.1 aminoacylation ribozyme variant]; 1.36
CUACUUCAAACAAUCGGUUUC [Fam1A.1 aminoacylation ribozyme variant]; 2.18
CUACUUCAAGCAAUCAGUCUG [Fam1A.1 aminoacylation ribozyme variant]; 2.25
CAACUUCAAAUAAUCGGUCUG [Fam1A.1 aminoacylation ribozyme variant]; 12.2
AUUCACCUAGGUUAUCGGGGG [Fam2.2 aminoacylation ribozyme variant]; 2.02

The reported self-aminoacylation of the sequence AUUCACCUGGAUCAUCGGGUG [Fam2.2 aminoacylation ribozyme variant] was 3.31

The reported self-aminoacylation of the sequence UUACUUCAAAGAAUCGGUCUG [Fam1A.1 aminoacylation ribozyme variant] was 2.03

The reported self-aminoacylation of the sequence GCACACUUCAAACAAUCGGUC [Fam1B.1 aminoacylation ribozyme variant] was 59

The reported self-aminoacylation of the sequence GCACUUCAAACAAUCGGUCUG [Fam1A.1 aminoacylation ribozyme variant] was 62.3

----------
Quick reference: self-aminoacylation of the listed items.
test system: biotinyl-Phe-oxazolone; experiment: self-aminoacylation, catalytic enhancement (BFO) (fold over background); higher = more active; k-Seq, kA / k0A0; sequences stand for … in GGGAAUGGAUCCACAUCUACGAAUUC…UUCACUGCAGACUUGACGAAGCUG
Variants at the floor of the assay were thinned out.

Some sequences with recorded self-aminoacylation:
AUUAGCCUAGUCAUCGAGUGA [Fam2.1 aminoacylation ribozyme variant]; 4.14
AUGUUUUCUAAUAGUCGCAAG [Fam3.1 aminoacylation ribozyme variant]; 2.58
AGUACCCUGGUCAUCGAUUGA [Fam2.1 aminoacylation ribozyme variant]; 1.09
AAGUAUGCUAAUAGACGCAAG [Fam3.1 aminoacylation ribozyme variant]; 1.04
CGACCCUUCAAGCAAUCGGUC [Fam1B.1 aminoacylation ribozyme variant]; 3.2

Okay, now this sequence:
The reported self-aminoacylation of the sequence AAGAUUGCUAAUAGUCGUAAG [Fam3.1 aminoacylation ribozyme variant] was 9.9

----------
system: biotinyl-Val-oxazolone; experiment: self-aminoacylation, catalytic enhancement (BVO) (fold over background); higher = more active; k-Seq, kA / k0A0; sequences stand for … in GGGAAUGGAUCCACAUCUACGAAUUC…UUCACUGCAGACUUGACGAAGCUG
Variants at the floor of the assay were thinned out.
Quick reference: self-aminoacylation of the listed items.

AUGACCCUGGUCGUCGAGUGA [Fam2.1 aminoacylation ribozyme variant]; 0.888
AUUACCCUCGACAUCGAGUGA [Fam2.1 aminoacylation ribozyme variant]; 5.56
CUUACCCUGGUCAUCUAGUGA [Fam2.1 aminoacylation ribozyme variant]; 3.89
CUACUUCACACAAUUGGUCUG [Fam1A.1 aminoacylation ribozyme variant]; 0.739
AUUCACCUAGGUCUCCGGGUG [Fam2.2 aminoacylation ribozyme variant]; 4.49

The reported self-aminoacylation of the sequence CUACGUCAAACAAUCGGUCUC [Fam1A.1 aminoacylation ribozyme variant] was 1.04

The reported self-aminoacylation of the sequence AUUCCCCUAGGUCCUCGGGUG [Fam2.2 aminoacylation ribozyme variant] was 17.1
